molecular target: calcium-sensing receptor CaSR (Homo sapiens); experiment: calcium mobilization assay in PEAKrapid cells transiently expressing human CaSR, with mock control
Sequence (P41180 20-1078): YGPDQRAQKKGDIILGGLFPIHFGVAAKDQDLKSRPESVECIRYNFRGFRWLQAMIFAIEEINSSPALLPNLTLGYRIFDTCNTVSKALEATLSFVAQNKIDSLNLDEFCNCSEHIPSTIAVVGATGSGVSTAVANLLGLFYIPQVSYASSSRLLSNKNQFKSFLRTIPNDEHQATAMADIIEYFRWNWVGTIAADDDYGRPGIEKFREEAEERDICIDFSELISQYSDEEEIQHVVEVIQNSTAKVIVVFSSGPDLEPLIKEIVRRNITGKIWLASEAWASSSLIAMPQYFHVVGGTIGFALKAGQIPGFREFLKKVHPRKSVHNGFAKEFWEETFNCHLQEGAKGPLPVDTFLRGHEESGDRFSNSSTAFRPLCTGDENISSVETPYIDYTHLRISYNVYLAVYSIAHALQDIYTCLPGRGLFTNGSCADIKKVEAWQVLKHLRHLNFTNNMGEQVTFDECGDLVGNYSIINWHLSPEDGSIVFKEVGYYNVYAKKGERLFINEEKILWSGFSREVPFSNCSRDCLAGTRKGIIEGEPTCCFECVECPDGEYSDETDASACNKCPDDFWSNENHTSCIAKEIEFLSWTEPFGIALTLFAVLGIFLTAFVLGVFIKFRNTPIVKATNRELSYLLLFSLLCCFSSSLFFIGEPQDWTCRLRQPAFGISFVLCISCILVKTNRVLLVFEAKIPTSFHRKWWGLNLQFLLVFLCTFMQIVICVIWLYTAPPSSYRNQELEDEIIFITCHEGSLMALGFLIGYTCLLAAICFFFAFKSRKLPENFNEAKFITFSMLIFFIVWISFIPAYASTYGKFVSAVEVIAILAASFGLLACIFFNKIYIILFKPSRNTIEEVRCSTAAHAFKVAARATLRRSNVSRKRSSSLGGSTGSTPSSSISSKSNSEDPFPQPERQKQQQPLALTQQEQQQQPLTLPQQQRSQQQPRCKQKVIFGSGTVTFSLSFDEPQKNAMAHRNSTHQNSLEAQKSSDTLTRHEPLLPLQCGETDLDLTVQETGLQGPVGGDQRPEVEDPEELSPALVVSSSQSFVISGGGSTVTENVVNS
pEC50: −log10 of the molar value.

{"COMPOUND": "CC(C)CC=O [IVAH, isovaleraldehyde]", "pEC50": 3.17}
